assay: Storage modulus / gel forming of peptide gel with PBS; assay type: physicochemical; details: 1% w/v peptide
metric-name: Gel forming

Here is how some substances turned out for Gel forming.
| substance | test-value |
| --- | --- |
| Ac-PKLDLKLDP-NH2 [PKLDP9, AC-PKLDLKLDP-amide] | No |
| Ac-PRVDVRVDP-NH2 [PRVDP9, AC-PRVDVRVDP-NH2] | Yes |
| Ac-PRIDIRIDP-NH2 [PRIDP9, AC-PRIDIRIDP-amide] | No |
| Ac-PKVEVKVEP-NH2 [PKVEP9, AC-PKVEVKVEP-amide] | Yes |

Next up:
Ask | For the substance Ac-PKIEIKIEP-NH2 [PKIEP9, AC-PKIEIKIEP-amide] , give its reported Gel forming.
Reply | No

----------
experiment: Solubility in pure water at room temperature; assay type: physicochemical; settings: water
Overview of recorded solubility for various substances

| substance | solubility |
| --- | --- |
| Ac-PKVEVKVEP-NH2 [PKVEP9, AC-PKVEVKVEP-amide] | ≥ 40 mg/mL |
| Ac-RVDVRVDV-NH2 [RVDV8, AC-RVDVRVDV-NH2] | < 30 mg/mL |
| Ac-PRVDVRVDP-NH2 [PRVDP9, AC-PRVDVRVDP-NH2] | ≥ 40 mg/mL |

Next up:
Ask | For the substance Ac-VRVDVRVDV-NH2 [VRVDV9, AC-VRVDVRVDV-NH2] , give its reported solubility.
Reply | < 30 mg/mL

----------
test: Storage modulus / gel forming of peptide gel with PBS; assay type: physicochemical; conditions: 2% w/v peptide
metric-name: Gel forming

| substance | metric-name | test-value |
| --- | --- | --- |
| Ac-PKLDLKLDP-NH2 [PKLDP9, AC-PKLDLKLDP-amide] | Gel forming | No |
| Ac-PRIDIRIDP-NH2 [PRIDP9, AC-PRIDIRIDP-amide] | Gel forming | No |
| Ac-PRVDVRVDP-NH2 [PRVDP9, AC-PRVDVRVDP-NH2] | Gel forming | Yes |
| Ac-PKVEVKVEP-NH2 [PKVEP9, AC-PKVEVKVEP-amide] | Gel forming | Yes |

----------
test: Solubility in pure water at room temperature; assay type: physicochemical; settings: 1% w/v, room temperature
metric-name: Soluble or not at R.T.

| substance | test-value |
| --- | --- |
| Ac-PKLDLKLDP-NH2 [PKLDP9, AC-PKLDLKLDP-amide] | Yes |
| Ac-PKIEIKIEP-NH2 [PKIEP9, AC-PKIEIKIEP-amide] | Yes |
| Ac-PRVEVRVEP-NH2 [PRVEP9, Ac-PRVEVRVEP-amide] | No |
| Ac-PRVDVRVDP-NH2 [PRVDP9, AC-PRVDVRVDP-NH2] | Yes |
| Ac-PRIDIRIDP-NH2 [PRIDP9, AC-PRIDIRIDP-amide] | Yes |

Next up:
Ask | For the substance Ac-PKVEVKVEP-NH2 [PKVEP9, AC-PKVEVKVEP-amide] , give its reported Soluble or not at R.T..
Reply | Yes
